- System Under Test: Phosphatidylinositol 4-kinase beta (Homo sapiens);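 note: values are mean percent inhibition of PI4K-beta activity, averaged over replicate measurements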
- Conditions: at 1 µM

Sample Smiles	inhibition / %
Oc1cccc(-c2nc(-c3ccccc3)[nH]c2-c2ccncc2)c1	-3.49
NS(=O)(=O)c1ccc(NC=C2C(=O)Nc3ccc4ncsc4c32)cc1	4.92
ON=C1CCc2cc(-c3nc(C4CCNCC4)[nH]c3-c3ccncc3)ccc21	-0.63
COc1cc2ncnc(Nc3ccc(C)c(O)c3)c2cc1OC	-0.17
C[C@@H](Oc1cc(-n2cnc3ccc(OC[C@@H](O)CO)cc32)sc1C(N)=O)c1ccccc1Cl	-1.09
O=C(Nc1ccc(Oc2ccc3[nH]c(NC(=O)c4ccco4)nc3c2)cc1)Nc1cc(C(F)(F)F)ccc1F	1.53
OCc1ccc(-c2nc(-c3ccccn3)c(-c3ccc4c(c3)OCO4)[nH]2)cc1	-0.21
O=S(=O)(CCOCc1ccc(-c2ccc3ncnc(Nc4ccc(OCc5cccc(F)c5)c(Cl)c4)c3c2)o1)c1ccccc1	0.4
Nc1ccc(C#Cc2cncnc2Nc2ccc(OCc3cccc(F)c3)c(Cl)c2)cc1	0.07

----------
- System Under Test: Fibroblast growth factor receptor 4 (Homo sapiens) (UniProt P22455);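 note: values are mean percent inhibition of FGFR4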
- Sequence (P22455 22-802 limits assumed): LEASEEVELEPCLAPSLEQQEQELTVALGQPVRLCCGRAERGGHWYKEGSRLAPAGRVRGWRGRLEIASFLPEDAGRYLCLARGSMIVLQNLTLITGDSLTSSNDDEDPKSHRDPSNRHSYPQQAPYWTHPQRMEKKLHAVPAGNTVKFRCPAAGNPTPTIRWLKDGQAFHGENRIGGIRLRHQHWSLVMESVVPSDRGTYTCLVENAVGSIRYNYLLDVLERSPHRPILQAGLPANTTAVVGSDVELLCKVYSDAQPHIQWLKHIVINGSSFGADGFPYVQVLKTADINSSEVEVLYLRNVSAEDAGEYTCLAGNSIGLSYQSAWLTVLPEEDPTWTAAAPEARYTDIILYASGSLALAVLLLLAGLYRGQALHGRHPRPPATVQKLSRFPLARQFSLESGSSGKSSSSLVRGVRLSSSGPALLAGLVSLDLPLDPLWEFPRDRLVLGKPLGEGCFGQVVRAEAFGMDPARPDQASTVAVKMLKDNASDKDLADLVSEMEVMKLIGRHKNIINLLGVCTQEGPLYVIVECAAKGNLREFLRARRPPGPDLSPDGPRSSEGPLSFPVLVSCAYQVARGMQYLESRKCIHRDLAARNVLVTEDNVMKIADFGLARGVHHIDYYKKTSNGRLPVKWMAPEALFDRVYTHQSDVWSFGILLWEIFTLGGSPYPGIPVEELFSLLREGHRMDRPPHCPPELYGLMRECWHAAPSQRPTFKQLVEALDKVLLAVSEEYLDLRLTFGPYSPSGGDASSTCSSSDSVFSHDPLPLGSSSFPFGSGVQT
- Conditions: at 0.1 µM

Molecule	inhibition, %
CCCN1CCCC(c2ccc(Nc3nc(Nc4cc(F)ccc4C(N)=O)c4cc[nH]c4n3)c(OC)c2)C1 (stereo not drawn)	0.72
FC(F)(F)c1ccc(-c2nn3ncccc3c2-c2ccnc(Nc3ccc4c(c3)OCCO4)n2)cc1	6.29
CCn1c(-c2nonc2N)nc2ccc(F)cc21	2.81
Nc1nccc(-c2c(-c3ccc(F)cc3)nn3cc(C(F)(F)F)ccc23)n1	-0.28
Cc1cc(Cl)cc2c1NC(=O)C2=NNc1ccc(S(N)(=O)=O)cc1	-0.13
O=C1Nc2ccccc2/C1=C/Nc1ccc2[nH]c(=O)[nH]c2c1	1.89
Cc1ccc2c(-c3ccnc(Nc4ccc5c(c4)OCCO5)n3)c(-c3ccc(C(F)(F)F)cc3)nn2n1	1.94
NC(=O)c1cccc(Nc2nccc(Nc3cccc(F)c3)n2)c1	2.38
CS(=O)(=O)CCNCc1nc(-c2ccc3ncnc(Nc4ccc(OCc5cccc(C(F)(F)F)c5)cc4)c3c2)cs1	4.89
COc1cc2ncnc(Nc3ccc(C)c(O)c3)c2cc1OC	-0.45
COC(=O)c1cncc(/C=C/c2c(C)cc(O)cc2C)c1	-1.32
c1ccc(Nc2ncc(-c3ccccc3)o2)cc1	2.33
COC(=O)Nc1nc2cc(Oc3ccc(NC(=O)Nc4cccc(Br)c4)cc3)ccc2[nH]1	-1.88

----------
- System Under Test: Vascular endothelial growth factor receptor 3 (Homo sapiens);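 note: mean FLT4 inhibition, averaged across replicates, from the GSK PKIS kinase inhibitor screen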
- Conditions: at 1 µM
If the reported inhibition equals or exceeds 4%, assign 1.0. If not, assign 0.0.

Sample Smiles	Qualitative Label
FC(F)(F)c1ccc(-c2nn3ncccc3c2-c2ccnc(Nc3ccc4c(c3)OCCO4)n2)cc1	1.0
O=C(Nc1ccc(Oc2ccc3[nH]c(NC(=O)c4ccco4)nc3c2)cc1)Nc1cc(C(F)(F)F)ccc1F	1.0
NS(=O)(=O)c1cccc(Nc2cc(-c3ccc(F)cc3)n[nH]2)c1	0.0
Nc1ccc(C#Cc2cncnc2Nc2ccc(OCc3cccc(F)c3)c(Cl)c2)cc1	0.0
COc1cccc(-n2ncc3c(N/N=C/c4ccc(C)cc4)ncnc32)c1	1.0

----------
# maps each entry to its inhibition
- System Under Test: Aurora kinase A (Homo sapiens) (UniProt O14965);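 note: each reported value is a mean percent inhibition of Aurora-A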
- Sequence (O14965 whole entry): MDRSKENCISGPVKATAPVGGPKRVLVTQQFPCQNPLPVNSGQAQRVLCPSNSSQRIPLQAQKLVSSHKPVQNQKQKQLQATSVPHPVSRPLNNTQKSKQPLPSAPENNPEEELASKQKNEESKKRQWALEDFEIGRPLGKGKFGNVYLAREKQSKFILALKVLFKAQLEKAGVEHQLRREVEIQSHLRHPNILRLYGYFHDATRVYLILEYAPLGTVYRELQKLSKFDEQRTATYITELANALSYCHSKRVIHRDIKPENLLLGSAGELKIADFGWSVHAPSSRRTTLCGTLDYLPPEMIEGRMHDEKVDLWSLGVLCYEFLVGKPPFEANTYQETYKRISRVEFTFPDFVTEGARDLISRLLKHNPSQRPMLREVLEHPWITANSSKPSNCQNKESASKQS
- Conditions: at 0.1 µM

Molecule	Unit Descriptor	inhibition
c1ccc(Cc2nc3ccc(Nc4ncnc5ccccc45)cc3[nH]2)cc1	%	2.6
COC(=O)Nc1nc2cc(Oc3ccc(NC(=O)Nc4cccc(Br)c4)cc3)ccc2[nH]1	%	0.95
CC(C)c1ccc2c(c1)NC(=O)/C2=N/Nc1ccc(S(N)(=O)=O)cc1	%	1.5
CN1CCN(C(=O)c2ccc(NC(=O)Nc3ccc(N(C)c4ccnc(Nc5ccc(CS(C)(=O)=O)cc5)n4)cc3)cc2)CC1	%	84.3
ON=C1CCc2cc(-c3nc(C4CCNCC4)[nH]c3-c3ccncc3)ccc21	%	-0.5
Cc1ccc(NC(=O)CC2CC2)cc1-c1ccc(C(=O)NCC2CC2)cc1	%	4.04
CN(C)c1cc2c(Nc3ccc4c(cnn4Cc4ccccc4)c3)ncnc2cn1	%	-1.73
CS(=O)(=O)Nc1cccc(-c2ccc3c(NC(=O)C4CC4)n[nH]c3c2)c1	%	2.68
COc1cc2ncnc(Nc3ccc4c(cnn4Cc4ccccc4)c3)c2cc1OC	%	1.22
CCn1c(-c2nonc2N)nc2c(C#CC(C)(C)O)nc(OCCNC)cc21	%	1.75
Cc1ccc2c(-c3ccnc(Nc4cccc(C(F)(F)F)c4)n3)c(-c3ccccc3)nn2n1	%	1.82
O=C(Nc1ccc(Oc2ccc3[nH]c(NC(=O)c4ccco4)nc3c2)cc1)Nc1cc(C(F)(F)F)ccc1F	%	-1.76
NS(=O)(=O)c1ccc(NC=C2C(=O)Nc3ccc4ncsc4c32)cc1	%	34.6
O=S(=O)(CCOCc1ccc(-c2ccc3ncnc(Nc4ccc(OCc5cccc(F)c5)c(Cl)c4)c3c2)o1)c1ccccc1	%	1.6
C[C@@H](Oc1cc(-n2cnc3ccc(OCC4CCN(C)CC4)cc32)sc1C(N)=O)c1ccccc1C(F)(F)F	%	-0.53
CCCN1CCCC(c2ccc(Nc3nc(Nc4cc(F)ccc4C(N)=O)c4cc[nH]c4n3)c(OC)c2)C1 (configuration not stated)	%	1.81
COc1cccc(-n2nc(C)c3c(N/N=C(\C)c4ccncc4)ncnc32)c1	%	1.27

----------
- System Under Test: NUAK family SNF1-like kinase 1 (Homo sapiens) (UniProt O60285)
- Sequence (O60285 whole entry): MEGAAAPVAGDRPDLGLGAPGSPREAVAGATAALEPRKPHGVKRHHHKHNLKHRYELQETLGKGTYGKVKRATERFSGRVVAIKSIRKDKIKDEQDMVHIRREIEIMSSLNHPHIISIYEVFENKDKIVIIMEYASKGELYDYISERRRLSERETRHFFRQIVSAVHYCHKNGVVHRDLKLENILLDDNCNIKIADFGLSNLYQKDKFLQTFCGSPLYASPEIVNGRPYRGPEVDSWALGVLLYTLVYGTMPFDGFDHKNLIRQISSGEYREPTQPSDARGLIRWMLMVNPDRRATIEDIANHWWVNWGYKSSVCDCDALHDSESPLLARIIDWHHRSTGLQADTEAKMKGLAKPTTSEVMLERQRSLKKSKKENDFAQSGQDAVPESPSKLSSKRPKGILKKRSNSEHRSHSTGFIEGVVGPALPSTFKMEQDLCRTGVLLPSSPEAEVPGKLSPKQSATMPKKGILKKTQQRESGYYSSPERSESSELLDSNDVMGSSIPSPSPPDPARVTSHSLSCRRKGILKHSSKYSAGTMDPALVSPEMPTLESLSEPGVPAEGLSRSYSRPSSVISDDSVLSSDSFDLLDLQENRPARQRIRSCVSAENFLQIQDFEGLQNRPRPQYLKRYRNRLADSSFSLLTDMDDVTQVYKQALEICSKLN
- Conditions: at 1 µM
- Description: GSK_PKIS: ARK5 mean inhibition at 1 uM [Nanosyn]
Listed below: inhibition values for each entry.
Quantity Kind: inhibition (%)

Compound	Value Measured
OCc1ccc(-c2nc(-c3ccccn3)c(-c3ccc4c(c3)OCO4)[nH]2)cc1	5.56
FC(F)(F)c1ccc(-c2nn3ncccc3c2-c2ccnc(Nc3ccc4c(c3)OCCO4)n2)cc1	5.73
O=C1Nc2ccccc2/C1=C/Nc1ccc2[nH]c(=O)[nH]c2c1	46
Cc1ccc2c(-c3ccnc(Nc4cccc(C(F)(F)F)c4)n3)c(-c3ccccc3)nn2n1	5.3
Cc1nc(-c2ccccc2)n2nc(NCCCN3CCOCC3)ncc12	20.3
Cc1cc(O)cc(C)c1/C=C/c1cncc(C(=O)N(C)C)c1	8.58
CN(C)C(=O)O[C@@H]1CN[C@@H](C#Cc2cc3ncnc(Nc4ccc(OCc5cccc(F)c5)c(Cl)c4)c3s2)C1	0.15
COc1cc2ncn(-c3cc(OCc4ccccc4S(C)(=O)=O)c(C#N)s3)c2cc1OC	54.3
COc1cc2ncnc(Nc3ccc4c(cnn4Cc4ccccc4)c3)c2cc1OC	2.05
NS(=O)(=O)c1ccc(Nc2cc(-c3cccc(O)c3)n[nH]2)cc1	13.9
c1ccc(Cc2nc3ccc(Nc4ncnc5ccccc45)cc3[nH]2)cc1	5.29
CCCN1CCCC(c2ccc(Nc3nc(Nc4cc(F)ccc4C(N)=O)c4cc[nH]c4n3)c(OC)c2)C1 (centres undefined)	59.7
NS(=O)(=O)c1ccc(N/N=C2\C(=O)Nc3ccc(Cl)cc32)cc1	48.9
CN1CCN(C(=O)c2ccc(NC(=O)Nc3ccc(N(C)c4ccnc(Nc5ccc(CS(C)(=O)=O)cc5)n4)cc3)cc2)CC1	44.5
Cc1ccc2c(-c3ccnc(Nc4ccc5c(c4)OCCO5)n3)c(-c3ccc(C(F)(F)F)cc3)nn2n1	1.59
CS(=O)(=O)CCNCc1nc(-c2ccc3ncnc(Nc4ccc(OCc5cccc(C(F)(F)F)c5)cc4)c3c2)cs1	2.2
CN(C)c1cc2c(Nc3ccc4c(cnn4Cc4ccccc4)c3)ncnc2cn1	3.46
CN(C)C(=O)O[C@H]1CN[C@H](C#Cc2cc3ncnc(Nc4ccc(OCc5cccc(F)c5)c(Cl)c4)c3s2)C1	1.59
COc1cc(Nc2nccc(-c3cnn4ncccc34)n2)cc(OC)c1	84.8

----------
- System Under Test: Macrophage-stimulating protein receptor (Homo sapiens)
- Conditions: at 1 µM
- Description: GSK_PKIS: RON mean inhibition at 1 uM [Nanosyn]
Reported inhibition values are given for each entry in this list.

Compound	Unit Descriptor	inhibition
CN(C)C(=O)O[C@H]1CN[C@H](C#Cc2cc3ncnc(Nc4ccc(OCc5cccc(F)c5)c(Cl)c4)c3s2)C1	%	5.82
OCc1ccc(-c2nc(-c3ccccn3)c(-c3ccc4c(c3)OCO4)[nH]2)cc1	%	-0.55
CS(=O)(=O)Nc1cccc(-c2ccc3c(NC(=O)C4CC4)n[nH]c3c2)c1	%	-6.45
Oc1cccc(-c2nc(-c3ccccc3)[nH]c2-c2ccncc2)c1	%	5.25
C[C@@H](Oc1cc(-n2cnc3ccc(OC[C@@H](O)CO)cc32)sc1C(N)=O)c1ccccc1Cl	%	6.85
COc1cc(/C=N/Nc2ncnc3c2cnn3C(C)C)ccc1O	%	17.9
NS(=O)(=O)c1ccc(Nc2cc(-c3cccc(O)c3)n[nH]2)cc1	%	0.78
CCn1c(-c2nonc2N)nc2ccc(F)cc21	%	6.19
FC(F)(F)c1ccc(-c2nn3ncccc3c2-c2ccnc(Nc3ccc4c(c3)OCCO4)n2)cc1	%	0.63
COc1cccc(-n2ncc3c(N/N=C/c4ccc(C)cc4)ncnc32)c1	%	9.64
NS(=O)(=O)c1cccc(-c2cc3ccncc3cc2OCc2ccccc2)c1	%	-2.44
Cc1ccc2c(c1)/C(=N/Nc1ccc(S(N)(=O)=O)cc1)C(=O)N2	%	-1.57
Cc1ccc(O)cc1Nc1ccnc2ccc(S(C)(=O)=O)cc12	%	6.07
CN(C)c1cc2c(Nc3ccc4c(cnn4Cc4ccccc4)c3)ncnc2cn1	%	0.62
CC(C)c1ccc2c(c1)NC(=O)/C2=N/Nc1ccc(S(N)(=O)=O)cc1	%	-1.8
COc1ccc2ncnc(Nc3ccc(OCc4ccccc4)cc3)c2c1	%	4.46
N#Cc1c(NC(=O)c2ccccc2F)sc2c1CCCC2	%	-3.33
CCCN1CCCC(c2ccc(Nc3nc(Nc4cc(F)ccc4C(N)=O)c4cc[nH]c4n3)c(OC)c2)C1 (stereo unspecified)	%	13.1
CN1CCN(C(=O)c2ccc(NC(=O)Nc3ccc(N(C)c4ccnc(Nc5ccc(CS(C)(=O)=O)cc5)n4)cc3)cc2)CC1	%	58.6
CN(C)CCCn1c(-c2nonc2N)nc2cnccc21	%	3.53
CS(=O)(=O)CCNCc1nc(-c2ccc3ncnc(Nc4ccc(OCc5cccc(C(F)(F)F)c5)cc4)c3c2)cs1	%	2.59
Nc1nccc(C#Cc2cncnc2Nc2ccc(OCc3cccc(F)c3)c(Cl)c2)n1	%	9.09
CCS(=O)(=O)c1ccc(OC)c(Nc2nccc(N(C)c3ccc4c(C)n[nH]c4c3)n2)c1	%	11.8
Nc1ccc(C#Cc2cncnc2Nc2ccc(OCc3cccc(F)c3)c(Cl)c2)cc1	%	1.71
Cc1cc(O)cc(C)c1/C=C/c1cncc(C(=O)N(C)C)c1	%	11
COc1cc2ncn(-c3cc(OCc4ccccc4S(C)(=O)=O)c(C#N)s3)c2cc1OC	%	8.3
Cc1ccc2c(-c3ccnc(Nc4cccc(C(F)(F)F)c4)n3)c(-c3ccccc3)nn2n1	%	13.6
CN(c1ccc(NC(=O)Nc2ccc(OC(F)(F)F)cc2)cc1)c1ccnc(Nc2cccc(S(N)(=O)=O)c2)n1	%	90.5
COc1cc(Nc2nccc(-c3cnn4ncccc34)n2)cc(OC)c1	%	22.3
O=S(=O)(CCOCc1ccc(-c2ccc3ncnc(Nc4ccc(OCc5cccc(F)c5)c(Cl)c4)c3c2)o1)c1ccccc1	%	1.46
COc1ccc(-c2nn3ncccc3c2-c2ccnc(Nc3cccc(C(F)(F)F)c3)n2)cc1	%	-3.48
c1ccc(Nc2ncc(-c3ccccc3)o2)cc1	%	9.16
Cc1ccc(Nc2ccnc(Nc3cccc(C(N)=O)c3)n2)cc1O	%	13.3
CCOc1nccc2c1nc(-c1nonc1N)n2CC	%	5.31
Cc1cc(-c2ccccn2)cc(C)c1/C=C/c1cncc(-c2nn[nH]n2)c1	%	3.94
NS(=O)(=O)c1ccc(-c2cc3ccncc3cc2OCc2ccccc2)cc1	%	8.77

Every entry's value here was drawn from ChEMBL document CHEMBL1961873.
